test system: DU-145 prostate; experiment: NCI tumour cell line growth inhibition, 48 h
# maps each entry to its TGI

Molecule | Comparison Operator | TGI (µM)
Cc1cc(NN=C(c2ccc(O)cc2)c2ccc(O)cc2)c([N+](=O)[O-])cc1[N+](=O)[O-] | = | 29.5
COc1ccc(C(O)c2cc3c(N)c(C(=O)Nc4cccc(Br)c4C)sc3nc2C)cc1 (centres undefined) | = | 4.54
O=c1[nH]cnc2n[nH]nc12 | > | 100
C=CCN1CCC(c2cc(C(=O)OCC)[nH]c2-c2cc(C)no2)C1=O (centres undefined) | > | 100
Cc1cc(-c2nc3c(F)cccc3s2)ccc1N | > | 100
CN(C)c1ccc(-c2ccc(-c3ccc(C(=N)N)cn3)o2)cc1 | = | 3.18
CN1CC[C@H](c2c(O)cc(O)c3c(=O)cc(-c4ccccc4Cl)oc23)[C@H](O)C1 | > | 10
COC(=O)C(=O)Nc1cc2c3c(c1)Oc1cccc4c1C3(C)c1c(cccc1O2)O4 | > | 66.3
CC(=O)/C(=C\I)c1ccccc1 | = | 15.3

###

test system: RXF 393 renal; test: NCI tumour cell line growth inhibition, 48 h; in the data active means GI50 below about 0.43 µM; inactive means the rest
Possible outcomes: active, inactive

Molecule | Category Label
Nc1nccc2c([N+](=O)[O-])cccc12 | inactive
C=CC(=O)Nc1cc2c(Nc3ccc(F)c(Cl)c3)ncnc2cc1C#CC(C)(C)N1CCN(C)CC1 | inactive
NC(=O)/C(=C/n1cnc(-c2cc(C(F)(F)F)cc(C(F)(F)F)c2)n1)c1cncnc1 | active
CC1(C)N=C(N)N=C(N)N1c1cccc(CCc2ccccc2)c1 | inactive
CCOC(=O)/C(=C\c1ccc2ccccc2c1)P(=O)(OCC)OCC | inactive
Cc1ccc(C2CC(c3ccc(Nc4ccnc5cc(Cl)ccc45)cc3)=NN2C=O)cc1 (configuration not stated) | inactive
Nc1ccccc1C#Cc1ccccc1C#Cc1cccs1 | inactive
CCCCCCCCCCCCCCCC[n+]1ccccc1 | active
CCCCCC[C@H]1C(=O)O[C@H](C)[C@H](NC(=O)c2cccc(NC=O)c2OC)C(=O)O[C@@H](C)[C@@H]1OC(=O)CCC (tested in a mixture with another compound) | inactive
CCOc1ccc2cc(-c3nn(CC4CCNCC4)c4ncnc(N)c34)ccc2c1 | inactive
CCOC1Oc2ccc(C)cc2C(=O)/C1=C\Nc1ccc(S(N)(=O)=O)cc1 (configuration not stated) | inactive
C[As](C)SC1OCC(O)C(O)C1O (configuration not stated) | active

###

tested on: HS 578T breast; test: NCI tumour cell line growth inhibition, 48 h; in the data active means GI50 below about 0.43 µM; inactive means the rest
Outcomes: Yes = active, No = inactive

Compound | Category Label
COc1cc2cc(Oc3cccc(NC(=O)Nc4cc(C(F)(F)F)cc(C(F)(F)F)c4)c3)c(C)nc2cc1OC | No
CCCCCC[C@H]1C(=O)O[C@H](C)[C@H](NC(=O)c2cccc(NC=O)c2OC)C(=O)O[C@@H](C)[C@@H]1OC(=O)CCC (tested in a mixture with another compound) | No
C[As](C)SC1OCC(O)C(O)C1O (stereo not drawn) | Yes
CC(C)OP(=O)(O)c1ncc(-c2ccc(C(F)(F)F)cc2)c(NC2CCCCCC2)n1 | No
COc1cc2c3c(n(CCCNCCCNCCCN)c(=O)c2cc1OC)-c1cc2c(cc1C3=O)OCO2 | No
CCn1c(-c2nonc2N)nc2cnc(Oc3cccc(NC(=O)c4ccc(N(C)C)cc4)c3)cc21 | Yes
CN1CC[C@H](c2c(O)cc(O)c3c(=O)cc(-c4ccccc4Cl)oc23)[C@H](O)C1 | Yes
CCOc1ccc2cc(-c3nn(CC4CCNCC4)c4ncnc(N)c34)ccc2c1 | No
CC(=O)Oc1cc2cnc3c4cc(OC(C)=O)c(OC(C)=O)cc4ccc3c2cc1OC(C)=O | No
COc1cc(-c2nn(-c3cccc(NC(=O)CCNc4ccc(N5CCOCC5)cc4)c3)cc2-c2ccncc2)ccc1Cl | No
Nc1nccc2c([N+](=O)[O-])cccc12 | No
O=c1[nH]cnc2n[nH]nc12 | No
COCC(C(=O)OC1C/C=C/C=C/C(=O)OC(C(C)C(O)C(C)CCC(OC(=O)C(C)N(C)C)C(C)C(OC(C)=O)C(C)/C=C/N(C)C=O)C/C=C/C(OC)CC(C)C/C=C(\C)C(OC)CCC(C)C(O)C1C)N(C)C (stereo not drawn) | Yes

###

tested on: OVCAR-8 ovarian; assay: NCI tumour cell line growth inhibition, 48 h
The entries below are paired with their reported TGI.

Molecule | TGI
O=C1NC(N/N=C\c2ccccc2)=N/C1=C/c1ccccc1 | > 100 µM
N#CCc1cccc(CC#N)c1Br | > 100 µM
N#Cc1cc(S(=O)(=O)Nc2nc3cc(Cl)ccc3o2)c(SCc2ccccc2)cc1Cl | 27.3 µM
O=C(NCCN1CCCCC1)c1cccc(I)c1 | > 100 µM
CC(O)[C@H](NC(=O)N[C@@H](CC(N)=O)c1nc(N2CCNCC2)no1)C(=O)O (stereo partly specified) | > 100 µM
CN(C)CCN1CCc2c([nH]c3ccccc23)C1c1cccnc1 (stereo unspecified) | > 100 µM

###

system: U251 CNS; assay: NCI tumour cell line growth inhibition, 48 h
Where a SMILES comes first, the peptide text is derived from it. The star is where a group is joined. Boc = CC(C)(C)OC(=O)*; nBu = CCCC*
Parameter Measured: TGI

Molecule | Endpoint Value
CC[C@H]1OC(=O)[C@H](C)[C@@H](O[C@H]2C[C@@](C)(OC)[C@@H](O)[C@H](C)O2)[C@H](C)[C@@H](O[C@@H]2O[C@H](C)C[C@H](N(C)C)[C@H]2O)[C@](C)(OC)C/C(C)=C2/O[C@@]1(C)C=C2C | 3.54 µM
COc1cc([C@@H]2c3cc4c(cc3[C@@H](Nc3ccc(Cl)cc3C(=O)c3ccccc3)[C@H]3COC(=O)[C@H]23)OCO4)cc(OC)c1OC | 0.576 µM
O=c1c(Sc2c(SCSc3cnc4ccccc4c3Sc3c[nH]c4ccccc4c3=O)cnc3ccccc23)c[nH]c2ccccc12 | > 100 µM
O=[N+]([O-])c1cccc2nccc(NCCN3CCOCC3)c12 | > 53.9 µM
Oc1ccccc1C=Nc1ccc(-c2nc3ccccc3s2)cc1 | > 100 µM
CCCCOc1ccc(CC(NC(=O)OC(C)(C)C)C(=O)NC(C)C(=O)NC(Cc2ccccc2)C(=O)NCC(N)=O)cc1 (configuration not stated) (Boc-Y(nBu)AFG-NH2; configuration not given here) | > 100 µM
Cc1ccc(S(=O)(=O)N2CCSCCSCCSCCN(S(=O)(=O)c3ccc(C)cc3)CC2)cc1 | > 100 µM

###

Listed compounds paired with reported TGI
test system: A549 NSCLC; assay: NCI tumour cell line growth inhibition, 48 h
Parameter Measured: TGI

Compound | Parameter Measured | Endpoint Value
C=C1C(O)C2(O)OCC34C(CC5C(C)=CC(=O)C(O)C5(C)C23)OC(=O)C(OC(=O)C/C=C/CCCCCCCC)C14 (centres undefined) | TGI | 0.0918 µM
CCOC(=O)[C@@H]1CSC(CC)=C(C(=O)O)N1 | TGI | > 100 µM
COc1ccc2nc3ccc(OC)cc3c(SCCCl)c2c1 | TGI | > 100 µM
Nn1c(-c2ccc(Cl)cc2)nc2c(-c3ccc(Cl)cc3)nc3ccc(Cl)cc3c2c1=O | TGI | > 100 µM
COc1ccc(Br)c(C(=O)N2CCc3ccccc32)c1N | TGI | > 100 µM
CCCc1cc(OC(=O)c2c(O)cc(OC)cc2CCC)cc(O)c1C(=O)O | TGI | > 100 µM
COc1cc(/C=C2\SC(N3CCCCC3)=NC2=O)ccc1OCCCCCCOc1ccc(/C=C2\SC(N3CCCCC3)=NC2=O)cc1OC | TGI | 30.9 µM
OCC(O)C(O)C(O)c1nn(-c2ccc(F)cc2)c2nc3cc(Cl)c(Cl)cc3nc12 (centres undefined) | TGI | 32 µM
Cc1ccc(S(=O)(=O)N2CCSCCSCCSCCN(S(=O)(=O)c3ccc(C)cc3)CC2)cc1 | TGI | > 100 µM

###

test system: PC-3 prostate; experiment: NCI tumour cell line growth inhibition, 48 h
Parameter Measured: TGI

Molecule | Study Target | Parameter Measured | Endpoint Value
CO/C(=N\N=C\c1ccc(Cl)c(Cl)c1)c1ccncc1 | PC-3 prostate | TGI | > 10 µM
CS(=O)(=O)Nc1cc(-c2ccc3ncnc(Nc4cccc(Cl)c4)c3c2)cnc1Cl | PC-3 prostate | TGI | 11.5 µM
CC1(C)OC[C@@H]([C@@]2(COC(c3ccccc3)(c3ccccc3)c3ccccc3)CC=CC(=O)O2)O1 | PC-3 prostate | TGI | > 100 µM
C=CCN1CCC(c2cc(C(=O)OCC)[nH]c2-c2cc(C)no2)C1=O (stereo not drawn) | PC-3 prostate | TGI | > 100 µM
CCCCCCCCCCCCOCC1(COCCCCCCCCCCCC)COC(c2ccc(N)cc2)OC1 | PC-3 prostate | TGI | > 100 µM
CCOc1nc2c(N3CCCC3)nc(N3CCNCC3)nc2nc1NCc1ccccc1 | PC-3 prostate | TGI | 3.63 µM
COc1cc(OC)c2c(=O)c3cccc(C)c3n(C)c2c1 | PC-3 prostate | TGI | > 100 µM
COc1cc(-c2nn(-c3cccc(NC(=O)CCN4CCN(c5ccccc5)CC4)c3)cc2-c2ccncc2)ccc1Cl | PC-3 prostate | TGI | > 100 µM
O=C1NC2(CCNCC2)Oc2ccccc21 | PC-3 prostate | TGI | > 100 µM
C=CC(=O)Nc1cc2c(Nc3ccc(F)c(Cl)c3)ncnc2cc1C#CC(C)(C)N1CCN(C)CC1 | PC-3 prostate | TGI | 5.31 µM
O=C(NCCN1CCCCC1)c1cccc(I)c1 | PC-3 prostate | TGI | > 100 µM
COc1ccc(C2=Nn3c(nnc3-n3nc(C)cc3C)SC2)cc1 | PC-3 prostate | TGI | > 100 µM
Cn1nnc2c3c(N(CCO)CCO)ccnc3ccc21 | PC-3 prostate | TGI | > 100 µM
Cc1c(-c2ccccc2)[nH]c2cn[nH]c(=O)c12 | PC-3 prostate | TGI | > 100 µM
COc1ccccc1C(=O)N(Cc1ccccc1)c1ccc(Cl)c(C(=O)OC(C)C)c1 | PC-3 prostate | TGI | 75.3 µM
CC(C)CC(N)C(=O)NC(C(=O)NC(CCCNC(=N)N)C(=O)NC(CS)C(=O)NC1CSCC(C(=O)NC(Cc2ccccc2)C(=O)NC(C(=O)NC(CCCNC(=N)N)C(=O)O)C(C)C)NC(=O)C2CCCN2C(=O)C(CCCCN)NC(=O)C2CCCN2C(=O)C2CCCN2C(=O)C(Cc2ccc(O)cc2)NC(=O)C(CO)NC(=O)C(CCCCN)NC(=O)C(C(C)O)NC(=O)C(Cc2c[nH]c3ccccc23)NC1=O)C(C)C (stereo not drawn) | PC-3 prostate | TGI | > 25 µM
CC(=O)N1C(Nc2nccs2)CCN1c1ccccc1 (stereo not drawn) | PC-3 prostate | TGI | > 10 µM
C[As](C)SC1OCC(O)C(O)C1O (stereo not drawn) | PC-3 prostate | TGI | 5.73 µM
O=C1Cc2cn[nH]c2-c2ccccc2N1 | PC-3 prostate | TGI | > 100 µM
COc1ccc(-c2nc(-c3cnccn3)n(C3OC(CO)C(O)C3O)n2)cc1 (stereo not drawn) | PC-3 prostate | TGI | > 10 µM
Cn1c(=O)c2c(nc(N/N=C/c3ccccc3C(=O)O)n2C)n(C)c1=O | PC-3 prostate | TGI | > 100 µM
O=[N+]([O-])c1ccc(-c2nn3c(C45CC6CC(CC(C6)C4)C5)nnc3s2)c(Cl)c1 | PC-3 prostate | TGI | > 100 µM
COc1ccc(-c2csc(Nc3cccc(-c4csc(C)n4)c3)n2)cc1 | PC-3 prostate | TGI | > 50 µM
COc1ccc(C2NC(=S)NC3=C2CCOc2c3ccc3ccccc23)cc1 (stereo not drawn) | PC-3 prostate | TGI | > 100 µM
NC(=O)/C(=C/n1cnc(-c2cc(C(F)(F)F)cc(C(F)(F)F)c2)n1)c1cncnc1 | PC-3 prostate | TGI | 14.8 µM
COc1cc(NC2CCCCC2O)c2nc(-c3ccc(Cl)cc3)ccc2c1 (stereo not drawn) | PC-3 prostate | TGI | > 100 µM
Cc1nc2ccccc2c(=O)n1/N=C(\N=Nc1cc(Cl)ccc1Cl)c1ccccc1 | PC-3 prostate | TGI | > 100 µM
CCc1n[nH]c(=O)n1/N=C(\C)c1ccccc1 | PC-3 prostate | TGI | > 100 µM

Data origin: PubChem BioAssay (NCI)
